Kindly state neutralisation IC50, Wuhan-Hu-1 pseudovirus for each of the entries shown.
- testTarget: SARS-CoV-2 Wuhan-Hu-1 RBD (SARS-CoV-2, Wuhan-Hu-1 (GenBank …, UniProt P0DTC2))
- experimentNotes: cell-based or functional assay

Summary for this binder, JR235 (antibody, V domains shown) VH: EVQLVESGGGLVQPGRSLRLSCAASGFTFDDYAMHWVRQAPGKGLEWVSGISWNSGRIDYADSVKGRFTISRDNAKNSLYLQMNSLRAEDTALYYCAKVSTVTTYLMGYFDLWGRGTLVTVSS VL: EIVMTQSPATLSVSPGERATLSCRASQSVSSNLAWFQQKPGQAPRLLIYGASTRATGIPARFSGSGSGTEFILTISSLQSEDFAVYYCQLYSYWPPESSFGQGTKLEIK : neutralisation IC50, Wuhan-Hu-1 pseudovirus is > 1000 ng/mL

Summary for this binder, JR202 (antibody, V domains shown) VH: VQLVESGGGVVQPGRSLRLSCAASGFTFTTYTLHWVRQAPGKGLEWVAVISYDGNNKYYADSVKGRFTISRDDSKNTLYVQMNSLRAEDTAVYYCARSIGYYTGVDYWGQGTLVTVSS VL: NFMLTQPHSVSESPGKTVTISCTGSSGSIAINYVQWYQQRPGSAPITVIYEDNQRPSGVPDRFSGSIDSSSNSASLTISGLKTEDEADYYCQTYHSSTWVFGGGTKLTVL : neutralisation IC50, Wuhan-Hu-1 pseudovirus is 3.54 ng/mL

Summary for this binder, JR043 (antibody, V domains shown) VH: QVQLVQSGAEVKKPGASVKVSCKASGYTFTRNYMHWVRQAPGQGLEWMGIINPSGGSTSYAQKFQGRVTMTRDTSTSTVYMELSSLRSEDTAVYYCARVDSSSWSHCDYWGQGTLVTVSS VL: DIQLTQSPSSLSASVGDRVTITCRASQSISTYLNWYQQNPGKAPKLLIYGASNLQSGVPSRFSGSGSGTDFTLTISSLQPEDFATYYCQQSYSTLEITFGQGTRLEIK : neutralisation IC50, Wuhan-Hu-1 pseudovirus is 5.87 ng/mL
